Quick reference: protein stability index of the listed items.
B1: ACSBG2 (parent)
chain: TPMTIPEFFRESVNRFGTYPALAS

# Variants of: B1
# assay-overview: protein stability index of a GFP-peptide fusion (GPS, HEK-293T) (PSI 1-6); higher = more stable;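 also: lentivirally expressed fusions sorted by FACS into six bins by GFP to DsRed ratio, PSI derived from sequencing read proportions per bin multiplied by bin number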
# reported-conditions: c terminus: a fixed tail appended
metric: protein stability index

1. M3Y 2.49
2. E7C 2.19
3. E11Q 1.5
4. T1P 2.43
5. Y19L 2.38
6. F9I 2.27
7. Y19M 2.77
8. P6G 2.08
9. N14D 2.65
10. Y19A 2.82
11. L22I 2.34
12. P20S 2.04
13. F8N 3.19
14. P20R 2.18
15. T18F 1.9
16. M3C 2.34
17. M3L 2.09
